For each of the compounds below, state its G%.
Tested on: NCI-H460
experiment_notes: NCI-60 SRB assay, NCI-H460 (NSCLC)
Assay type: cell-based, human
details: 10 µM, 48 h, growth vs untreated control

Quick check: G% of C[C@@H]1NC(c2ccc(N=[N+]=[N-])cc2)=Nc2nc3ccccn3c2C1=O ?
93,67%

Quick check: G% of C[C@@H]1NC(c2csc3ccccc23)=Nc2nc3ccccn3c2C1=O ?
85,19%

Quick check: G% of [N-]=[N+]=NCCCC[C@@H]1NC(c2ccc(Br)cc2)=Nc2nc3ccccn3c2C1=O ?
90,79%

Quick check: G% of C[C@@H]1NC(c2ccc(Br)cc2)=Nc2nc3ccccn3c2C1=O ?
32,50%

====

Tested on: DU-145
experiment_notes: NCI-60 SRB assay, DU-145 (Prostate Cancer)
Assay type: cell-based, human
details: 10 µM, 48 h, growth vs untreated control
For each of the compounds below, state its G%.

Quick check: G% of C[C@@H]1NC(c2ccc(Br)cc2)=Nc2nc3ccccn3c2C1=O ?
87,74%

Quick check: G% of C[C@@H]1NC(c2csc3ccccc23)=Nc2nc3ccccn3c2C1=O ?
72,63%

Quick check: G% of [N-]=[N+]=NCCCC[C@@H]1NC(c2ccc(Br)cc2)=Nc2nc3ccccn3c2C1=O ?
101,95%

Quick check: G% of C[C@@H]1NC(c2ccc(N=[N+]=[N-])cc2)=Nc2nc3ccccn3c2C1=O ?
103,64%

====

For each of the compounds below, state its Mean G% - G%.
Test system: UACC-62
experiment_notes: NCI-60 SRB assay, UACC-62 (Melanoma)
Format: cell-based, human
details: 10 µM, 48 h

Quick check: Mean G% - G% of C[C@@H]1NC(c2ccc(N=[N+]=[N-])cc2)=Nc2nc3ccccn3c2C1=O ?
17,97%

Quick check: Mean G% - G% of C[C@@H]1NC(c2csc3ccccc23)=Nc2nc3ccccn3c2C1=O ?
-12,07%

Quick check: Mean G% - G% of [N-]=[N+]=NCCCC[C@@H]1NC(c2ccc(Br)cc2)=Nc2nc3ccccn3c2C1=O ?
11,94%

Quick check: Mean G% - G% of C[C@@H]1NC(c2ccc(Br)cc2)=Nc2nc3ccccn3c2C1=O ?
5,01%

====

System: NCI-60 cancer cell line panel
experiment_notes: NCI-60 SRB assay, whole panel
Format: cell-based, human
details: 10 µM, 48 h
Method: Primary anticancer assay was performed on a panel of 60 human cancer cell lines derived from nine neoplastic diseases, in accordance with the protocol of the Drug Evaluation Branch, National Cancer Institute, Bethesda, Maryland, USA[22]. Cells were incubated with tested compounds at 10 µM for 48 h. The growth percentage was evaluated spectrophotometrically using a protein binding dye, SRB. […]
test_readout: Mean G% (mean growth over the panel) (%)
Please reply with the bare figure in % and do not write the unit itself.

Quick check: Mean G% (mean growth over the panel) of C[C@@H]1NC(c2csc3ccccc23)=Nc2nc3ccccn3c2C1=O ?
74.87

Quick check: Mean G% (mean growth over the panel) of [N-]=[N+]=NCCCC[C@@H]1NC(c2ccc(Br)cc2)=Nc2nc3ccccn3c2C1=O ?
91.77

====

System: HOP-62
experiment_notes: NCI-60 SRB assay, HOP-62 (NSCLC);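 also: mean growth across the NCI-60 panel minus this line's growth with positive meaning more sensitive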
Type: cell-based, human
details: 10 µM, 48 h
test_readout: Mean G% - G%

Quick check: Mean G% - G% of C[C@@H]1NC(c2ccc(Br)cc2)=Nc2nc3ccccn3c2C1=O ?
-1,60%

Quick check: Mean G% - G% of [N-]=[N+]=NCCCC[C@@H]1NC(c2ccc(Br)cc2)=Nc2nc3ccccn3c2C1=O ?
14,42%

Quick check: Mean G% - G% of C[C@@H]1NC(c2csc3ccccc23)=Nc2nc3ccccn3c2C1=O ?
23,74%

Quick check: Mean G% - G% of C[C@@H]1NC(c2ccc(N=[N+]=[N-])cc2)=Nc2nc3ccccn3c2C1=O ?
6,31%
